# TARGET ENTITY: T1, Fusion protein of extracellular domain of human TIGIT and His-tag (human TIGIT ECD-his) (human)
# T1 chain: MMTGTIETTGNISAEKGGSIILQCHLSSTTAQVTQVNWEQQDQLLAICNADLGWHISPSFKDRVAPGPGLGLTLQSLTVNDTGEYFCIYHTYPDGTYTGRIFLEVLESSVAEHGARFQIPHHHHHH
# EXPERIMENTAL PROTOCOL: BIAcore; KD ratio to TIGIT-CHI-070
Listing of entries alongside the reported Fold change vs chimeric antibodies (KD).

| BINDER | Fold change vs chimeric antibodies (KD) [fold] |
| --- | --- |
| TIGIT-070-H3L2 (antibody, V domains shown, Humanized anti-TIGIT antibody) VH: EVQLVQSGAEVKKPGASVKVSCKASGYTFTNYYMHWVRQAPGQGLEWMGRIDPDSGGSKYNEKFKSRVTITVDKLSSTAYMELSSLRSEDTAVYYCAREGHYGFYSDYWGQGTTVTVSS VL: DIQMTQSPSSLSASVGDRVTITCRVSENIYSYLAWYQQKPGKSPKLLVYNAKTLAEGVPSRFSGSGSGTDFTLTISSLQPEDFATYYCQHHYGNPLTFGPGTKVDIK | 1.32 |
| TIGIT-070-H2L2 (antibody, V domains shown, Humanized anti-TIGIT antibody) VH: EVQLVQSGAEVKKPGASVKVSCKASGYTFTNYYMHWVRQAPGQRLEWMGRIDPDSGGSKYNEKFKSRVTITVDKLSSTAYMELSSLRSEDTAVYYCAREGHYGFYSDYWGQGTTVTVSS VL: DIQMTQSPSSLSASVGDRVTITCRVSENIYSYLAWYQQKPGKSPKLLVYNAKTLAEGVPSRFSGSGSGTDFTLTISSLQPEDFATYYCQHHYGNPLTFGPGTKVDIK | 0.87 |
| TIGIT-070-H1L2 (antibody, V domains shown, Humanized anti-TIGIT antibody) VH: EVQLVQSGAEVKKPGASVKVSCKASGYTFTNYYMHWVRQAPGQRLEWMGRIDPDSGGSKYNEKFKSRVTITVDKSASTAYMELSSLRSEDTAVYYCAREGHYGFYSDYWGQGTTVTVSS VL: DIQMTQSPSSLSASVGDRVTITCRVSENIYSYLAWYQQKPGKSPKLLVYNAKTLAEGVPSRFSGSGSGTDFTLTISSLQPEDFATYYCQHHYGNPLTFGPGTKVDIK | 0.9 |
| TIGIT-070-H2L1 (antibody, V domains shown, Humanized anti-TIGIT antibody) VH: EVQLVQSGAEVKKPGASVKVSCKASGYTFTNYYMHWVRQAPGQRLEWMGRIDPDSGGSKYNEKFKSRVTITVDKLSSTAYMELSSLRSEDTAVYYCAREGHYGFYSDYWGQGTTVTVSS VL: DIQMTQSPSSLSASVGDRVTITCRVSENIYSYLAWYQQKPGKSPKLLIYNAKTLAEGVPSRFSGSGSGTDFTLTISSLQPEDFATYYCQHHYGNPLTFGPGTKVDIK | 0.82 |
| TIGIT-070-H1L1 (antibody, V domains shown, Humanized anti-TIGIT antibody) VH: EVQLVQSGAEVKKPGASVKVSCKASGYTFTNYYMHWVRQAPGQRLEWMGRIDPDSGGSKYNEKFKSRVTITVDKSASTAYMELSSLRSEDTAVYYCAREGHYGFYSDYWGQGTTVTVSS VL: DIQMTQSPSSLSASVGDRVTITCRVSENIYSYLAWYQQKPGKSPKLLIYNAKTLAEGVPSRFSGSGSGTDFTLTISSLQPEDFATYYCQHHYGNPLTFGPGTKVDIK | 0.59 |
| TIGIT-070-H2L3 (antibody, V domains shown, Humanized anti-TIGIT antibody) VH: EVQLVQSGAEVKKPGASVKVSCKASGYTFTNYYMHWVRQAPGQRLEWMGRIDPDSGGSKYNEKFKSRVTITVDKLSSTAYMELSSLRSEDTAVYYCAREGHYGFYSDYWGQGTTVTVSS VL: DIVMTQSPDSLAVSLGERATINCRVSENIYSYLAWYQQKPGQSPKLLVYNAKTLAEGVPDRFSGSGSGTDFTLTISSLQAEDVAVYYCQHHYGNPLTFGPGTKVDIK | 0.77 |
| TIGIT-070-H3L1 (antibody, V domains shown, Humanized anti-TIGIT antibody) VH: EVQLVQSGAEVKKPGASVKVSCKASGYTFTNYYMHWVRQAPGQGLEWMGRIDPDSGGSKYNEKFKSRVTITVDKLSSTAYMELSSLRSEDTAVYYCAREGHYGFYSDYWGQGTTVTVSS VL: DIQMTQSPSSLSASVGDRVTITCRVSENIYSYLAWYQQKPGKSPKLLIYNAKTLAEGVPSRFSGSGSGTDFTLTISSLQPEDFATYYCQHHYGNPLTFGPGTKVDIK | 1.23 |
